Experiment: Determination of bioavailability in a dog
Assay type: in vivo
Details: plasma, male beagle dogs, IV bolus 1 mg/kg vs oral gavage 5 mg/kg, AUC comparison
Description: The following protocol was used to estimate the bioavailability of test compounds in a dog. Test compounds were formulated in vehicles compatible with intravenous and oral dosing. […] Plasma samples (EDTA) were obtained by centrifugation (2200×g for 10 minutes at 5° C.) and stored frozen ([…]) until analyzed for parent compound via LC/MS/MS. […] By comparing the area under the curve (AUC) for IV and PO administration estimates of oral bioavailability were determined.
// reported bioavailability per item

# example entries with known answers
{"columns": ["compound_string", "quantity_kind", "obs_value"],
 "data": [
  ["CC[C@@H](NC(=O)N1C(=O)[C@H](Cc2cc(C)nc(N)c2)[C@H]1C(=O)N(C)c1nccn1C)c1ccccc1", "bioavailability", "> 30%"],
  ["CC[C@@H](NC(=O)N1C(=O)[C@H](Cc2ccnc(N)c2)[C@H]1C(=O)N(C)c1cccs1)c1ccccc1", "bioavailability", "11 to 30%"],
  ["CC[C@@H](NC(=O)N1C(=O)[C@H](Cc2ccnc(N)c2)[C@H]1C(=O)N(C)c1ccnn1C)c1ccccc1", "bioavailability", "> 30%"],
  ["CC[C@@H](NC(=O)N1C(=O)[C@H](Cc2cc(C)nc(NC)c2)[C@H]1C(=O)N(C)c1nccn1C)c1ccccc1", "bioavailability", "11 to 30%"],
  ["CC[C@@H](NC(=O)N1C(=O)[C@H](Cc2ccnc(N)c2)[C@H]1C(=O)N(C)c1nccn1C)c1ccc(C)nc1", "bioavailability", "< 10%"]
]}

Task: For the molecule `CC[C@@H](NC(=O)N1C(=O)[C@H](Cc2ccnc(N)c2)[C@H]1C(=O)N(C)c1ccn(C)n1)c1cccc(Cl)c1` , report bioavailability.
Result: > 30%

Task: For the molecule `CC[C@@H](NC(=O)N1C(=O)[C@H](Cc2ccnc(N)c2)[C@H]1C(=O)N(C)c1ccnn1C)c1cccc(Cl)c1` , report bioavailability.
Result: > 30%

Task: For the molecule `CC[C@@H](NC(=O)N1C(=O)[C@H](Cc2cc(C)nc(N)c2)[C@H]1C(=O)N(C)c1ccn(C)n1)c1cccc(Cl)c1` , report bioavailability.
Result: > 30%

Task: For the molecule `CC[C@@H](NC(=O)N1C(=O)[C@H](Cc2ccnc(N)c2)[C@H]1C(=O)N(C)c1ccn(C)n1)c1ccccc1` , report bioavailability.
Result: > 30%

Task: For the molecule `CC[C@@H](NC(=O)N1C(=O)[C@H](Cc2ccnc(N)c2)[C@H]1C(=O)N(C)c1nccn1C)c1ccccc1` , report bioavailability.
Result: > 30%

---

assay: Plasma protein binding by equilibrium dialysis; type: in vitro ADME; conditions: both sexes, pH 7.4, pooled human plasma, 4 hours at 37° C., read-out: PPB (%)
quantity_kind: fraction unbound at 4 h, 10 μM

# example entries with known answers
{"columns": ["compound_string", "obs_value"],
 "data": [
  ["CC[C@@H](NC(=O)N1C(=O)[C@H](Cc2ccnc(N)c2)[C@H]1C(=O)N(C)c1nccn1C)c1ccccc1", "0.1 to 0.5"],
  ["CC[C@@H](NC(=O)N1C(=O)[C@H](Cc2ccnc(N)c2)[C@H]1C(=O)N(C)c1cccs1)c1ccccc1", "0.05 to 0.09"],
  ["CC[C@@H](NC(=O)N1C(=O)[C@H](Cc2cc(C)nc(N)c2)[C@H]1C(=O)N(C)c1cnn(C)c1)c1cccc(Cl)c1", "0.1 to 0.5"]
]}

Task: For the compound `CC[C@@H](NC(=O)N1C(=O)[C@H](Cc2cc(C)nc(N)c2)[C@H]1C(=O)N(C)c1nccn1C)c1cccc(Cl)c1` , report fraction unbound at 4 h, 10 μM.
Result: 0.1 to 0.5
